# test_protocol: Acute toxicity in mice (Experiment 3)
# Format: in vivo, Mouse (Jcl:ICR)
# condition_info: mouse, in vivo, sc, male, subcutaneous
observable: LD50

Qu. Need LD50 of CCCCn1c(=O)n(CCC)c(=O)c2c(NC)n(C(=O)OC)nc21 [Compound (A)] , thanks.
Ans. > 5000 mg/kg

----------
# test_protocol: Acute toxicity in rats (Experiment 3)
# Design: species or system Rat (JcL:Wistar)
# condition_info: rat, in vivo, ip, male, intraperitoneal
observable: LD50 (mg/kg)
The figure you give is taken to be in mg/kg; do not add the unit.

Qu. Need LD50 of CCCCn1c(=O)n(CCC)c(=O)c2c(NC)n(C(=O)OC)nc21 [Compound (A)] , thanks.
Ans. 650
